# Tested on: FL5.12
# Test Protocol: Reversal of cytokine withdrawal protection in IL3 dependent Bcl-xL overexpressing mouse FL5.12 cells in presence of 3% FBS
# Assay type: functional
pEC50: −log10 of the molar value.
Lab note: anything with pEC50 at or over 6 counts as 1; the rest go in 0.

Query :: Confirm if pEC50 reported for the compound CN(C)CC[C@H](CSc1ccccc1)Nc1ccc(S(=O)(=O)NC(=O)c2ccc(N3CCN(Cc4ccccc4-c4ccc(S(C)(=O)=O)cc4)CC3)cc2)cc1[N+](=O)[O-] is 6 or above.
Result :: 0

Query :: Confirm if pEC50 reported for the compound CN(C)CC[C@H](CSc1ccccc1)Nc1ccc(S(=O)(=O)NC(=O)c2ccc(N3CCN(Cc4ccccc4-c4cccc(Cl)c4)CC3)cc2)cc1[N+](=O)[O-] is 6 or above.
Result :: 0

Query :: Confirm if pEC50 reported for the compound CN(C)CC[C@H](CSc1ccccc1)Nc1ccc(S(=O)(=O)NC(=O)c2ccc(N3CCN(Cc4ccccc4-c4ccccc4Cl)CC3)cc2)cc1[N+](=O)[O-] is 6 or above.
Result :: 0

Query :: Confirm if pEC50 reported for the compound CN(C)CC[C@H](CSc1ccccc1)Nc1ccc(S(=O)(=O)NC(=O)c2ccc(N3CCN(Cc4ccccc4-c4ccc(C(F)(F)F)cc4)CC3)cc2)cc1[N+](=O)[O-] is 6 or above.
Result :: 1

Query :: Confirm if pEC50 reported for the compound CN(C)CC[C@H](CSc1ccccc1)Nc1ccc(S(=O)(=O)NC(=O)c2ccc(N3CCN(Cc4ccccc4-c4ccc(Cl)cc4)CC3)cc2)cc1[N+](=O)[O-] is 6 or above.
Result :: 1

Query :: Confirm if pEC50 reported for the compound CN(C)CC[C@H](CSc1ccccc1)Nc1ccc(S(=O)(=O)NC(=O)c2ccc(N3CCC(C)(C)CC3)cc2)cc1[N+](=O)[O-] is 6 or above.
Result :: 0

Query :: Confirm if pEC50 reported for the compound CN(C)CC[C@H](CSc1ccccc1)Nc1ccc(S(=O)(=O)NC(=O)c2ccc(N3CCN(Cc4ccccc4-c4ccc(-c5ccccc5)cc4)CC3)cc2)cc1[N+](=O)[O-] is 6 or above.
Result :: 1

Query :: Confirm if pEC50 reported for the compound COc1cccc(-c2ccccc2CN2CCN(c3ccc(C(=O)NS(=O)(=O)c4ccc(N[C@H](CCN(C)C)CSc5ccccc5)c([N+](=O)[O-])c4)cc3)CC2)c1 is 6 or above.
Result :: 0
